EXPERIMENT_NOTES: solvent given as SMILES
CONDITIONS_USED: in CCCCCCO
PROPERTY_MEASURED: solvation free energy, 298 K (kcal/mol)
All answers are understood in kcal/mol, so give the number only.

Given the molecule "C(=Cc1ccccc1)c1ccccc1" , write its reported solvation free energy, 298 K.
-10.1

Given the molecule "O=C(O)c1ccccc1O" , write its reported solvation free energy, 298 K.
-10.2

Given the molecule "Cc1cccc(C(=O)O)c1" , write its reported solvation free energy, 298 K.
-9.94

---

EXPERIMENT_NOTES: solvent given as SMILES
CONDITIONS_USED: in O
Each item that follows carries a reported solvation free energy, 298 K.

CCCCCCCl    0 kcal/mol

Given the compound "CCCc1ccc(O)c(OC)c1" , write its reported solvation free energy, 298 K.
-5.26 kcal/mol

Given the compound "COc1ccccc1O" , write its reported solvation free energy, 298 K.
-5.67 kcal/mol

Given the compound C=C1C=CC(C(C)C)CCC(C)=CCC1 (stereo not drawn) , write its reported solvation free energy, 298 K.
0.14 kcal/mol

Given the compound "Cc1ccc2c(C)ccc(C(C)C)c2c1" , write its reported solvation free energy, 298 K.
-2.5 kcal/mol

Given the compound "CCCCCCCNCc1ccc(C)cc1" , write its reported solvation free energy, 298 K.
-5.01 kcal/mol

Given the compound "CF" , write its reported solvation free energy, 298 K.
-0.22 kcal/mol

Given the compound "Cc1ccc(N(O)C(=O)COc2ccccc2)cc1" , write its reported solvation free energy, 298 K.
-12.8 kcal/mol

Given the compound "CCOC(C)(C)CC" , write its reported solvation free energy, 298 K.
-1.5 kcal/mol

Given the compound CC(C(=O)O)c1ccc(N2CC=CC2)c(Cl)c1 (stereo not drawn) , write its reported solvation free energy, 298 K.
-11.3 kcal/mol

Given the compound "CCCC1CCCCC1" , write its reported solvation free energy, 298 K.
1.8 kcal/mol

Given the compound "c1ccc2ncccc2c1" , write its reported solvation free energy, 298 K.
-5.72 kcal/mol

Given the compound "ClC(Cl)C(Cl)Cl" , write its reported solvation free energy, 298 K.
-2.45 kcal/mol

Given the compound "OCc1ccccc1" , write its reported solvation free energy, 298 K.
-6.79 kcal/mol

Given the compound "CCCCCCCCl" , write its reported solvation free energy, 298 K.
0.29 kcal/mol

Given the compound "O=Cc1cccc(O)c1" , write its reported solvation free energy, 298 K.
-9.52 kcal/mol

Given the compound "COCOC" , write its reported solvation free energy, 298 K.
-2.95 kcal/mol

Given the compound "C1=CCCC1" , write its reported solvation free energy, 298 K.
0.54 kcal/mol

Given the compound "Clc1ccc(Cl)cc1" , write its reported solvation free energy, 298 K.
-1.01 kcal/mol

Given the compound "Nc1ccc(Cl)cc1" , write its reported solvation free energy, 298 K.
-5.91 kcal/mol

Given the compound CC(C(=O)O)c1ccc(C(=O)c2cccs2)cc1 (stereo not drawn) , write its reported solvation free energy, 298 K.
-13.9 kcal/mol

---

Each item that follows carries a reported solvation free energy, 298 K.
EXPERIMENT_NOTES: solvent given as SMILES
CONDITIONS_USED: in CC(C)CO

COc1ccc2cc(C(C)C(=O)O)ccc2c1 (centres undefined)    -16.3 kcal/mol
CCC    -1.32 kcal/mol
O=C(O)c1ccccc1O    -10.2 kcal/mol
Cc1c(C(=O)O)cc([N+](=O)[O-])cc1[N+](=O)[O-]    -15.7 kcal/mol

Given the compound "Nc1ccc([N+](=O)[O-])cc1" , write its reported solvation free energy, 298 K.
-11.6 kcal/mol

Given the compound "Cc1ccccn1" , write its reported solvation free energy, 298 K.
-6.19 kcal/mol

Given the compound "Cc1cccc(C(=O)O)c1" , write its reported solvation free energy, 298 K.
-9.91 kcal/mol

Given the compound "O=C(O)c1ccc(O)cc1" , write its reported solvation free energy, 298 K.
-11.3 kcal/mol

Given the compound "c1ccc2c(c1)ccc1ccccc12" , write its reported solvation free energy, 298 K.
-9.56 kcal/mol

Given the compound "[HH]" , write its reported solvation free energy, 298 K.
1.53 kcal/mol

---

EXPERIMENT_NOTES: solvent given as SMILES
CONDITIONS_USED: in CC(=O)N(C)C
PROPERTY_MEASURED: solvation free energy, 298 K (kcal/mol)
All answers are understood in kcal/mol, so give the number only.

Given the compound "c1ccc2c(c1)oc1ccccc12" , write its reported solvation free energy, 298 K.
-9.94

Given the compound "C=CCO" , write its reported solvation free energy, 298 K.
-4.69

Given the compound "CCCCCCCCCCCCCCCCCCCCCCCCCCC" , write its reported solvation free energy, 298 K.
-18.4

Given the compound "COC(C)(C)C" , write its reported solvation free energy, 298 K.
-3.29

Given the compound "ClC=C(Cl)Cl" , write its reported solvation free energy, 298 K.
-4.8

Given the compound "C=CC(=C)C" , write its reported solvation free energy, 298 K.
-2.89

Given the compound "CCC#N" , write its reported solvation free energy, 298 K.
-4.99

Given the compound "c1ccc2c(c1)Cc1ccccc1-2" , write its reported solvation free energy, 298 K.
-10.4

Given the compound "CCOC(C)(C)C" , write its reported solvation free energy, 298 K.
-3.53

Given the compound "CCCCCCCCCCCCCCCCCCCCCCCCCCCC" , write its reported solvation free energy, 298 K.
-18.9

Given the compound "CC(C)O" , write its reported solvation free energy, 298 K.
-5.29

Given the compound "c1ccc2c(c1)[nH]c1ccccc12" , write its reported solvation free energy, 298 K.
-14

Given the compound "CCC" , write its reported solvation free energy, 298 K.
-1.09

Given the compound "CCCCCCCCCCCCCCCCCC" , write its reported solvation free energy, 298 K.
-12.1

Given the compound "CC1CCCCC1" , write its reported solvation free energy, 298 K.
-3.68

Given the compound "O=C(O)c1ccccc1" , write its reported solvation free energy, 298 K.
-10.1

---

EXPERIMENT_NOTES: solvent given as SMILES
CONDITIONS_USED: in CCCCOCCCC
PROPERTY_MEASURED: solvation free energy, 298 K (kcal/mol)
All answers are understood in kcal/mol, so give the number only.

O=C(O)c1ccc(O)cc1    -10.2
O=[N+]([O-])c1ccc(O)cc1    -11.8
Oc1ccc(-c2ccccc2)cc1    -12.8
CCCCN    -3.66
c1ccc2c(c1)ccc1ccccc12    -10.5

Lab note: next molecule to report on.
Given the molecule "C(=Cc1ccccc1)c1ccccc1" , write its reported solvation free energy, 298 K.
-10.6

---

EXPERIMENT_NOTES: solvent given as SMILES
CONDITIONS_USED: in C=CCCCCCCCCCCCCCC
Each item that follows carries a reported solvation free energy, 298 K.
All answers are understood in kcal/mol, so give the number only.

Example entries begin here.
CCC#N    -2.85
O=CO    -2.47
CCC=C(C)C    -3.42
CC(C)(C)Br    -3.56
O=C(O)c1ccc2ccccc2c1    -9.37

Given the compound "O=C(O)Cc1ccc(C(=O)O)cc1" , write its reported solvation free energy, 298 K.
-10.5

Given the compound "O=C(O)c1ccccc1" , write its reported solvation free energy, 298 K.
-5.84

Given the compound "ClC(Cl)Cl" , write its reported solvation free energy, 298 K.
-3.42

Given the compound "C=CCC=CC" , write its reported solvation free energy, 298 K.
-3.46

Given the compound "N#CCc1ccc(C(=O)O)cc1" , write its reported solvation free energy, 298 K.
-10.2

Given the compound "CCCCCl" , write its reported solvation free energy, 298 K.
-3.77

Given the compound "CCC(C)(C)CC" , write its reported solvation free energy, 298 K.
-3.89

Given the compound Nc1ncnc2c1ncn2C1CCC(CO)O1 (centres undefined) , write its reported solvation free energy, 298 K.
-14.7

Given the compound Nc1ncnc2c1ncn2C1CC(O)C(CO)O1 (centres undefined) , write its reported solvation free energy, 298 K.
-15.8

---

EXPERIMENT_NOTES: solvent given as SMILES
CONDITIONS_USED: in CCCCCO
Returns the class for an entry based on its solvation free energy, 298 K. Class ranges: low interval = under -9 kcal/mol, middle interval = from -9 kcal/mol up to -3 kcal/mol, high interval = -3 kcal/mol and over

Examples from the recorded data:
CCCl    high interval
C=CCCCC    middle interval

Category of "CCCOC(C)=O" :
middle interval

Category of "O=C(O)c1ccccc1" :
low interval

Category of COc1ccc2cc(C(C)C(=O)O)ccc2c1 (stereo not given) :
low interval

---

EXPERIMENT_NOTES: solvent given as SMILES
CONDITIONS_USED: in O
Satisfied means recorded solvation free energy, 298 K is -5 kcal/mol or above; Not satisfied means it is below -5 kcal/mol.

Examples from the recorded data:
Clc1ccc2c(c1)Oc1ccc(Cl)cc1O2    Satisfied
C=O    Satisfied
c1ccc(N=Nc2ccccc2)cc1    Satisfied
CCCCCCCC(=O)OC    Satisfied
Cc1cccnc1    Satisfied
CC(C)CCCC(C)C1CCC2C3CC=C4CC(O)CCC4(C)C3CCC12C (stereo unspecified)    Not satisfied
Nc1ccccc1[N+](=O)[O-]    Not satisfied
COC(=O)c1cccc([N+](=O)[O-])c1    Not satisfied

I'd appreciate it if you could say whether "Nc1ccccc1" has solvation free energy, 298 K at least equal to -5 kcal/mol.
Not satisfied

I'd appreciate it if you could say whether "CCCCCCCCCCOC(=O)c1ccccc1C(=O)OCCCCCCCCCC" has solvation free energy, 298 K at least equal to -5 kcal/mol.
Not satisfied

I'd appreciate it if you could say whether "CCCCCCCCCCCCCCCO" has solvation free energy, 298 K at least equal to -5 kcal/mol.
Satisfied
